Biological target: CYP2C9 (Homo sapiens (Human))
Sequence (P11712 whole entry): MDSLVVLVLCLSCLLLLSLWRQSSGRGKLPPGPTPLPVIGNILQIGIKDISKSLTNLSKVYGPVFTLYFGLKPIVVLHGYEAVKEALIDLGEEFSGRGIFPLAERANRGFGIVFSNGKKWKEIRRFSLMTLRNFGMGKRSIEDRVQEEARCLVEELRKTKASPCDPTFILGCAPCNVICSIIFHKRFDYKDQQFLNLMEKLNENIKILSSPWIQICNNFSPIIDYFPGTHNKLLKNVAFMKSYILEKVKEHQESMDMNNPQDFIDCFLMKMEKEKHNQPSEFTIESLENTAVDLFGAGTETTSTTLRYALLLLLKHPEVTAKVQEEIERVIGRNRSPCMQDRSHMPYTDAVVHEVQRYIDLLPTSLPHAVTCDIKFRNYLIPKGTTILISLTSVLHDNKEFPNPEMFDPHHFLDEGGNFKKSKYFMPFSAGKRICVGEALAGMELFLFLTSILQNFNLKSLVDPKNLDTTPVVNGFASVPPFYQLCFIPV
Experiment: CYP inhibition in human liver microsomes
Format: in vitro ADME
Conditions: human liver microsomes; read-out: IC50 (μM) CYP 2C9
Observable: IC50 (µM)
Dear colleague, please return just the value in µM, with no unit written.

Query (molecule): Cc1ccc(C)c(OCCCC(C)(C)C(=O)NC2CCCOc3c2nn(-c2ccccc2Cl)c3-c2ccc(Cl)cc2)c1 (stereo not shown) ; field requested: IC50
8.52

###

Molecular target: UniProtKB P21554
Sequence (P21554 whole entry): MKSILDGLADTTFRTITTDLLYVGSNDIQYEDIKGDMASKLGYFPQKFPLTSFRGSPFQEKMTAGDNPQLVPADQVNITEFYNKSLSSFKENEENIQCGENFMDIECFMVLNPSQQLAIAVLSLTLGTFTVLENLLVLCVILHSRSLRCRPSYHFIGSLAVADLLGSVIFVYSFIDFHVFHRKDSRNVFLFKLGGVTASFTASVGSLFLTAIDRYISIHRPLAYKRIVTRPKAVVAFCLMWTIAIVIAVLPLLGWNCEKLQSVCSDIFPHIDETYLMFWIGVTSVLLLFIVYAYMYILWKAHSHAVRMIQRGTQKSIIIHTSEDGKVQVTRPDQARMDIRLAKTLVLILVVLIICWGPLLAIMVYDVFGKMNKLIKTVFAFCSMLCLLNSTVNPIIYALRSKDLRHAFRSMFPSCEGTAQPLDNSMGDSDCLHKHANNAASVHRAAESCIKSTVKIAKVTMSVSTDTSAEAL
Test: CB1 receptor radioligand binding assay, membranes from human source
Observable: pKi
Value format note: pKi is -log10 of concentration (mol/L); just state the number.

What measured pKi is associated with O=S(=O)(NC1CCCOc2c1nn(-c1ccccc1Cl)c2-c1ccc(Cl)cc1)c1ccc(Cl)cc1 (stereo not shown) [BNS808] on UniProtKB P21554?
9.15

###

Biological target: UniProt P47746
Sequence (P47746 whole entry): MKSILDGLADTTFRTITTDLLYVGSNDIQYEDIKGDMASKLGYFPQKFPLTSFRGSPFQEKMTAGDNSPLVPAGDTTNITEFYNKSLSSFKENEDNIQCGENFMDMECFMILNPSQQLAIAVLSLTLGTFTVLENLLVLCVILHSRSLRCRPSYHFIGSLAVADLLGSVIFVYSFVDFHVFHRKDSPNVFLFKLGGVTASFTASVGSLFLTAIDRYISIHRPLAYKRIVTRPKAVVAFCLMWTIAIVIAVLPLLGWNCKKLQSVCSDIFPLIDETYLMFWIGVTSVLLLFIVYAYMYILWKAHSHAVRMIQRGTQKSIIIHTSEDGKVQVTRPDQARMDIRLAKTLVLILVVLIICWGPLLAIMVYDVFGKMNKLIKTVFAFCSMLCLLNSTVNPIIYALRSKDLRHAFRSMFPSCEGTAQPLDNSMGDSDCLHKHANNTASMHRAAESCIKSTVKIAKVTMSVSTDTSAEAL
Experiment: [35S]GTPγS binding assay for CB1 receptor, mouse brain membranes
Format: biochemical
Details: nature of binding: agonist/antagonist/inverse agonist
Observable: mCB1R GTPγ[^35S] (activity)

Below are worked cases with known answers.
Dear colleague, I am looking for the recorded mCB1R GTPγ[^35S] (activity) of the following compound: CS(=O)(=O)N1CCC(C(=O)NC2CCCOc3c2nn(-c2ccccc2Cl)c3-c2ccc(Cl)cc2)CC1 (stereo not drawn)
Antagonist

Next compound up: Cc1ccc(S(=O)(=O)NC2CCCOc3c2nn(-c2ccccc2Cl)c3-c2ccc(Cl)cc2)cc1 (stereo not drawn)
Inverse agonist

Lookup O=C(NC1CCCOc2c1nn(-c1ccccc1Cl)c2-c1ccc(Cl)cc1)c1ccncn1 (stereo not drawn)
Antagonist

Same again, this time with O=C(NC1CCCOc2c1nn(-c1ccccc1Cl)c2-c1ccc(Cl)cc1)c1cccnc1 (stereo not drawn)
Inverse agonist

Next: O=C(NC1CCCOc2c1nn(-c1ccccc1Cl)c2-c1ccc(Cl)cc1)c1ccccn1 (stereo not drawn)
Antagonist

What do you get for CC(C)(Oc1ccc(Cl)cc1)C(=O)NC1CCCOc2c1nn(-c1ccccc1Cl)c2-c1ccc(Cl)cc1 (stereo not drawn) ?
Antagonist

Now this one: Cc1ccc(C)c(OCCCC(C)(C)C(=O)NC2CCCOc3c2nn(-c2ccccc2Cl)c3-c2ccc(Cl)cc2)c1 (stereo not drawn)
Antagonist

Then what about the compound CS(=O)(=O)NC1CCCOc2c1nn(-c1ccccc1Cl)c2-c1ccc(Cl)cc1 (stereo not drawn) ?
Antagonist

***
Need mCB1R GTPγ[^35S] (activity), item O=C(NC1CCCOc2c1nn(-c1ccccc1Cl)c2-c1ccc(Cl)cc1)c1ccncc1 (stereo not drawn)
Antagonist

Consider next the compound O=C(NC1CCCOc2c1nn(-c1ccccc1Cl)c2-c1ccc(Cl)cc1)C1CCN(S(=O)(=O)c2ccc(Cl)cc2)CC1 (stereo not drawn) in the same way.
Antagonist

What about CC(C)(Oc1ccc(C(=O)c2ccc(Cl)cc2)cc1)C(=O)NC1CCCOc2c1nn(-c1ccccc1Cl)c2-c1ccc(Cl)cc1 (stereo not drawn) ?
Antagonist

Entry to check: O=C(NC1CCCOc2c1nn(-c1ccccc1Cl)c2-c1ccc(Cl)cc1)C1CCN(C(=O)c2cccnc2)CC1 (stereo not drawn)
Inverse Agonist

Repeat with CCOC(=O)N1CCC(C(=O)NC2CCCOc3c2nn(-c2ccccc2Cl)c3-c2ccc(Cl)cc2)CC1 (stereo not drawn)
Inverse Agonist

Field entry: O=C(NC1CCCOc2c1nn(-c1ccccc1Cl)c2-c1ccc(Cl)cc1)c1cnccn1 (stereo not drawn)
Inverse agonist
